Experiment: Mutagenicity in Salmonella typhimurium TA100 in presence of rat S9 fraction by Ames test
Type: toxicity, subcellular
Settings: salmonella enterica subsp. enterica serovar typhimurium
ENDPOINT: Activity

Answered examples (7):
Cc1cc(-c2ccc(C(=O)[C@@H]3CCCC[C@H]3C(=O)Nc3cn(C)nc3C(N)=O)cc2)n[nH]1: Non-Toxic
Cc1cc(-c2ccc(C(=O)[C@@H]3CCCC[C@H]3C(=O)Nc3cn(C)nc3C)cc2)n[nH]1: Non-Toxic
Cc1cc(-c2ccc(C(=O)[C@@H]3CCCC[C@H]3C(=O)Nc3cnn(C)c3S(N)(=O)=O)cc2)[nH]n1: Non-Toxic
Cc1cc(-c2ccc(C(=O)[C@@H]3CCCC[C@H]3C(=O)Nc3cnn4c3C(=O)NCC4)cc2)[nH]n1: Non-Toxic
Cc1cc(-c2ccc(C(=O)[C@@H]3CCCC[C@H]3C(=O)Nc3c(C)nn(C)c3C(N)=O)cc2)n[nH]1: Toxic
Cc1cc(-c2ccc(C(=O)[C@@H]3CCCC[C@H]3C(=O)Nc3cnn(C)c3C(N)=O)cc2)[nH]n1: Toxic
CCn1ncc(NC(=O)[C@@H]2CCCC[C@H]2C(=O)c2ccc(-c3cc(C)n[nH]3)cc2)c1C(N)=O: Toxic

The record that follows has no Activity shown yet.
Requested field: Activity. Item: Cc1cc(-c2ccc(C(=O)[C@@H]3CCCC[C@H]3C(=O)Nc3cnn(C)c3C(=O)NOC(C)(C)C)cc2)[nH]n1
Non-Toxic

====

In this section we review reported pIC50 values for a set of molecules.
Molecular target: Solute carrier organic anion transporter family member 1B1 (Homo sapiens, UniProt Q9Y6L6)
Sequence (Q9Y6L6 whole entry): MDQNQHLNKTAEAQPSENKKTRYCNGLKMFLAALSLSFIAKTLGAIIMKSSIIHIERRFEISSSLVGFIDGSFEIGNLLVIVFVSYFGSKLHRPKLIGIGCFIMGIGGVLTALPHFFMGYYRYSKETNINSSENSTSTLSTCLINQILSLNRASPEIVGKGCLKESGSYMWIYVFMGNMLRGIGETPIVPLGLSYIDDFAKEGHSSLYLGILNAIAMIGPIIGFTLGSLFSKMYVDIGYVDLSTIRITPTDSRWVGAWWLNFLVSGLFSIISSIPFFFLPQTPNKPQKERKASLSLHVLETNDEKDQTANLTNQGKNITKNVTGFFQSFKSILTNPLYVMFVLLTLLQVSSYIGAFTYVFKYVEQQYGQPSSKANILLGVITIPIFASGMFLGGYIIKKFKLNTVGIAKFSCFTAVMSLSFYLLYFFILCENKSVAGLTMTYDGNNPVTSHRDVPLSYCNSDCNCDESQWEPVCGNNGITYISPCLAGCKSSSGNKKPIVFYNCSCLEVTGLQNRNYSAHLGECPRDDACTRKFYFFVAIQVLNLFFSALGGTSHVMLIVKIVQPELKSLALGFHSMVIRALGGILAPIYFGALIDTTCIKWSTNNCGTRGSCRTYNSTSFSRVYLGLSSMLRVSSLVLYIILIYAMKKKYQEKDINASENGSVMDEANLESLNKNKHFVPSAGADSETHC
Assay: […] at recombinant human OATP1B1 expressed in HEK293 cells assessed as reduction in pivastatin uptake
The value called pIC50 is obtained by taking minus log10 of the concentration in mol/L.

Cc1cc(-c2ccc(C(=O)[C@@H]3CCCC[C@H]3C(=O)Nc3cnn(C)c3C(=O)NOC(C)(C)C)cc2)[nH]n1: 5.85

For the next question, use this molecule.
GET /values?readout=pIC50&system=Solute carrier organic anion transporter family member 1B1 (Homo sapiens, UniProt Q9Y6L6)&item= Cc1cc(-c2ccc(C(=O)[C@@H]3CCCC[C@H]3C(=O)Nc3cnn(C)c3S(N)(=O)=O)cc2)[nH]n1
5.60

====

Molecular target: Voltage-dependent T-type calcium channel subunit alpha-1H (Homo sapiens)
Sequence (O95180 whole entry): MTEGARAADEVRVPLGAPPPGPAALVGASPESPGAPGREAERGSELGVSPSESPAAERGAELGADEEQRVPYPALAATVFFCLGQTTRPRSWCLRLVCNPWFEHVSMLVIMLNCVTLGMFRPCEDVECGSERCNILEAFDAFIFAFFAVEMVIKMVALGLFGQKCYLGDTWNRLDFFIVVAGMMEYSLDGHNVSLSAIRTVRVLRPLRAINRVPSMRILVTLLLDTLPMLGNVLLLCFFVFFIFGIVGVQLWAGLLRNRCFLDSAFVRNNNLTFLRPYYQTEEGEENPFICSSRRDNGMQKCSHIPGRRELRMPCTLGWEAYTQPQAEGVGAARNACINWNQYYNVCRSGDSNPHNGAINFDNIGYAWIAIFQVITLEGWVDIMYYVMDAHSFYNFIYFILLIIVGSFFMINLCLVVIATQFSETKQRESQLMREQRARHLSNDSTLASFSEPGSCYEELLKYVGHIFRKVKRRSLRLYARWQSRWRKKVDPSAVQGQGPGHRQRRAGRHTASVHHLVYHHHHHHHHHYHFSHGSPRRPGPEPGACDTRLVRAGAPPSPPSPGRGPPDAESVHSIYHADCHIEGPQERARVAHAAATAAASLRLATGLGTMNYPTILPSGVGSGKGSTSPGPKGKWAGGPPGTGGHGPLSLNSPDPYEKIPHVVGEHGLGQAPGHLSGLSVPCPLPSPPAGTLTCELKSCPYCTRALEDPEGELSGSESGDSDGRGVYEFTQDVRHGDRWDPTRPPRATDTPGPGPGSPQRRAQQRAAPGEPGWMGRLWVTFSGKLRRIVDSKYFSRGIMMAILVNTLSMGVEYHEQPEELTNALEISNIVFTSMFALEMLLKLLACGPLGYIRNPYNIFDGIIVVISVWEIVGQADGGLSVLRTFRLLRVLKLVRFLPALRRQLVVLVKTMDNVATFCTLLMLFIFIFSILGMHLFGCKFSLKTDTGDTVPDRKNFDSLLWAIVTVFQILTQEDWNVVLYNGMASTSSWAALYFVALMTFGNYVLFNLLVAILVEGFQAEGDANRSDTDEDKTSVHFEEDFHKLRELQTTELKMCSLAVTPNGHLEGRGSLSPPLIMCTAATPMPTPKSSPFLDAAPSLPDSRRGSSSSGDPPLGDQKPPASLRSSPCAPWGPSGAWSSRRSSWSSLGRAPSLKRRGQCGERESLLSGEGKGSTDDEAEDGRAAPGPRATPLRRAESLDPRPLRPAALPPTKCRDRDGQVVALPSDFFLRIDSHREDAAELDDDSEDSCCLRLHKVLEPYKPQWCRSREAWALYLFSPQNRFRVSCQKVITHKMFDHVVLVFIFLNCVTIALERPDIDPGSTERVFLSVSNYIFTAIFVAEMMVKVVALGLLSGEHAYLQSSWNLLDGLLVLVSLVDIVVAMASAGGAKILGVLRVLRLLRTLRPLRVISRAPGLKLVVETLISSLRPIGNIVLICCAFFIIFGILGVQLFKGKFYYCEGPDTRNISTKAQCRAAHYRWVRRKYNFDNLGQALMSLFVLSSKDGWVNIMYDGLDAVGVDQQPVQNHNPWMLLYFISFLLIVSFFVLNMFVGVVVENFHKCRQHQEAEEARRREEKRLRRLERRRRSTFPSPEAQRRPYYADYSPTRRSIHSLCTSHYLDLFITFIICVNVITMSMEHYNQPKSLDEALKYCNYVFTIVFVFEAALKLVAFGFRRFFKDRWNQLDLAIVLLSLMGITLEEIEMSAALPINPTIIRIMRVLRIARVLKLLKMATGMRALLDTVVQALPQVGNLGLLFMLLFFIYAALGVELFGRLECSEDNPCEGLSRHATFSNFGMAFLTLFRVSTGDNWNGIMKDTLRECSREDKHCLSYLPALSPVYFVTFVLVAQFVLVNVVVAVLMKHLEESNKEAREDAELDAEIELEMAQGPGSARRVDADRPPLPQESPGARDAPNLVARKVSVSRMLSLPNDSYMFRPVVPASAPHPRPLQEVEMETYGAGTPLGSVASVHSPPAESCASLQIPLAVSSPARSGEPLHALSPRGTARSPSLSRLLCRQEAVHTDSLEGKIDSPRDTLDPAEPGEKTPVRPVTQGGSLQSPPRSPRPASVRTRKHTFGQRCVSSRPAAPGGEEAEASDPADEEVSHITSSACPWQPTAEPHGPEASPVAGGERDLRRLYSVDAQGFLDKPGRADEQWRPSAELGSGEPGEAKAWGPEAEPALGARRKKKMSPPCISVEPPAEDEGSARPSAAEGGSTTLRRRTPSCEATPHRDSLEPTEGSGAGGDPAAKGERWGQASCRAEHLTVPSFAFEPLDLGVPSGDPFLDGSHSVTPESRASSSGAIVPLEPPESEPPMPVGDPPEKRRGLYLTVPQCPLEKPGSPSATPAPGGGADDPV
Test: Inhibition of human Cav3.2 by Ion-work electrophysiology assay
ENDPOINT: IC50

Cc1cc(-c2ccc(C(=O)[C@@H]3CCCC[C@H]3C(=O)Nc3cnn4c3C(=O)NCC4)cc2)[nH]n1: > 32 µM

Consider the additional molecule presented here.
Please report the recorded IC50 for Cc1cc(-c2ccc(C(=O)[C@@H]3CCCC[C@H]3C(=O)Nc3cnn(C)c3S(N)(=O)=O)cc2)[nH]n1 .
> 32 µM

====

Assay: Half life in human at 60 to 1200 mg, po administered as single dose
Assay type: ADME, organism-based
Settings: in vivo
ENDPOINT: half-life (min)
Report the figure in min without appending any unit label.

Requested read-out: half-life. Entry: Cc1cc(-c2ccc(C(=O)[C@@H]3CCCC[C@H]3C(=O)Nc3cnn4c3C(=O)NCC4)cc2)[nH]n1
720

====

Experiment: Mutagenicity in Salmonella typhimurium TA100 in absence of rat S9 fraction by Ames test
Assay type: toxicity
Details: salmonella enterica subsp. enterica serovar typhimurium
ENDPOINT: Activity

Cc1cc(-c2ccc(C(=O)[C@@H]3CCCC[C@H]3C(=O)Nc3cnn(C)c3S(N)(=O)=O)cc2)[nH]n1: Non-Toxic
Cc1cc(-c2ccc(C(=O)[C@@H]3CCCC[C@H]3C(=O)Nc3cnn4c3C(=O)NCC4)cc2)[nH]n1: Non-Toxic
Cc1cc(-c2ccc(C(=O)[C@@H]3CCCC[C@H]3C(=O)Nc3cn(C)nc3C)cc2)n[nH]1: Non-Toxic
Cc1cc(-c2ccc(C(=O)[C@@H]3CCCC[C@H]3C(=O)Nc3c(C)nn(C)c3C(N)=O)cc2)n[nH]1: Toxic
CCn1ncc(NC(=O)[C@@H]2CCCC[C@H]2C(=O)c2ccc(-c3cc(C)n[nH]3)cc2)c1C(N)=O: Toxic
Cc1cc(-c2ccc(C(=O)[C@@H]3CCCC[C@H]3C(=O)Nc3cn(C)nc3C(N)=O)cc2)n[nH]1: Non-Toxic
Cc1cc(-c2ccc(C(=O)[C@@H]3CCCC[C@H]3C(=O)Nc3cnn(C)c3C(=O)NOC(C)(C)C)cc2)[nH]n1: Non-Toxic

Turning to the following compound.
Can you look up the measured Activity of Cc1cc(-c2ccc(C(=O)[C@@H]3CCCC[C@H]3C(=O)Nc3cnn(C)c3C(N)=O)cc2)[nH]n1 for me?
Toxic

====

Test: Aqueous solubility of the compound in pH 7.4 phosphate buffer measured after 24 hrs by LC-MS/MS-based shake flask method
Assay type: physicochemical
Listing of entries alongside the reported solubility thermodynamic at 24 h.
Answer format: numeric, µM implied, no suffix.

Cc1cc(-c2ccc(C(=O)[C@@H]3CCCC[C@H]3C(=O)Nc3cnn(CC(N)=O)c3)cc2)[nH]n1: 496
Cc1cc(-c2ccc(C(=O)[C@@H]3CCCC[C@H]3C(=O)Nc3cnn4c3C(=O)NCC4)cc2)[nH]n1: 104
Cc1cc(-c2ccc(C(=O)[C@@H]3CCCC[C@H]3C(=O)Nc3cnn(C)c3C(=O)O)cc2)[nH]n1: 599

Could you tell me which solubility thermodynamic at 24 h is on file for Cc1cc(-c2ccc(C(=O)[C@@H]3CCCC[C@H]3C(=O)Nc3cnn(C)c3C(=O)NO)cc2)[nH]n1 ?
224

====

Assay: Oral bioavailability in rat at 2 umol/kg
Format: ADME, organism-based
Details: in vivo
ENDPOINT: bioavailability
Answer format: value, then unit.

Give its bioavailability value. Item: Cc1cc(-c2ccc(C(=O)[C@@H]3CCCC[C@H]3C(=O)Nc3cnn(C)c3C(=O)NOC(C)(C)C)cc2)[nH]n1
12%

====

Assay: Mutagenicity in Salmonella typhimurium TA98 in presence of rat S9 fraction by Ames test
Type: toxicity, subcellular
Conditions: salmonella enterica subsp. enterica serovar typhimurium
ENDPOINT: Activity

Some entries whose results are on file:
Cc1cc(-c2ccc(C(=O)[C@@H]3CCCC[C@H]3C(=O)Nc3cnn(C)c3S(N)(=O)=O)cc2)[nH]n1: Non-Toxic
CCn1ncc(NC(=O)[C@@H]2CCCC[C@H]2C(=O)c2ccc(-c3cc(C)n[nH]3)cc2)c1C(N)=O: Toxic
Cc1cc(-c2ccc(C(=O)[C@@H]3CCCC[C@H]3C(=O)Nc3cnn(C)c3C(=O)NOC(C)(C)C)cc2)[nH]n1: Non-Toxic
Cc1cc(-c2ccc(C(=O)[C@@H]3CCCC[C@H]3C(=O)Nc3cn(C)nc3C)cc2)n[nH]1: Non-Toxic

State the recorded Activity for this entry: Cc1cc(-c2ccc(C(=O)[C@@H]3CCCC[C@H]3C(=O)Nc3cnn4c3C(=O)NCC4)cc2)[nH]n1
Non-Toxic

State the recorded Activity for this entry: Cc1cc(-c2ccc(C(=O)[C@@H]3CCCC[C@H]3C(=O)Nc3cnn(C)c3C(N)=O)cc2)[nH]n1
Toxic

Requested field: Activity. Item: Cc1cc(-c2ccc(C(=O)[C@@H]3CCCC[C@H]3C(=O)Nc3c(C)nn(C)c3C(N)=O)cc2)n[nH]1
Toxic

I am curious: what Activity value has been reported for Cc1cc(-c2ccc(C(=O)[C@@H]3CCCC[C@H]3C(=O)Nc3cn(C)nc3C(N)=O)cc2)n[nH]1 ?
Non-Toxic

====

Protein target, amino acids: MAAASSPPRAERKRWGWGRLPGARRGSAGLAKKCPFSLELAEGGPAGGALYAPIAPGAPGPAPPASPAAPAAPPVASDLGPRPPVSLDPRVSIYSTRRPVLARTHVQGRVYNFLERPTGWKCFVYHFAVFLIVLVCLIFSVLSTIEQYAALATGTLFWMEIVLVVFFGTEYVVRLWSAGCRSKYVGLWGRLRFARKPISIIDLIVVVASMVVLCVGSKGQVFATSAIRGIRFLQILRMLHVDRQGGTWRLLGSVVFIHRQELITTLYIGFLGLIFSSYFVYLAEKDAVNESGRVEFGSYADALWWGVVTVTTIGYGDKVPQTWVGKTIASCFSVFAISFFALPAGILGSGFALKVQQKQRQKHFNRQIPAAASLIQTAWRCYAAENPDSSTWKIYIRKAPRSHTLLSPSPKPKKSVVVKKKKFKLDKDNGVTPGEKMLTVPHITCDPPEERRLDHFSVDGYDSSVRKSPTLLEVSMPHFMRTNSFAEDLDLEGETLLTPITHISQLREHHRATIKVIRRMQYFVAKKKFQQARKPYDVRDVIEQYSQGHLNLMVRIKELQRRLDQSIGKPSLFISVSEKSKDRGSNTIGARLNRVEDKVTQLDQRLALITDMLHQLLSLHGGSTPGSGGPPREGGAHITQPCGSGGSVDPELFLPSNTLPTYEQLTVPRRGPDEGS
Measured IC50, listed per entry for reference.

Cc1cc(-c2ccc(C(=O)[C@@H]3CCCC[C@H]3C(=O)Nc3cnn4c3C(=O)NCC4)cc2)[nH]n1: > 33 µM

Now examine the next entry.
Recorded IC50 for Cc1cc(-c2ccc(C(=O)[C@@H]3CCCC[C@H]3C(=O)Nc3cnn(C)c3C(=O)NOC(C)(C)C)cc2)[nH]n1 , please?
> 33 µM
